Taken from paper PMC12416549.

Assay target: T1, TNFR1 (Homo sapiens, UniProt P19438)
T1 chain: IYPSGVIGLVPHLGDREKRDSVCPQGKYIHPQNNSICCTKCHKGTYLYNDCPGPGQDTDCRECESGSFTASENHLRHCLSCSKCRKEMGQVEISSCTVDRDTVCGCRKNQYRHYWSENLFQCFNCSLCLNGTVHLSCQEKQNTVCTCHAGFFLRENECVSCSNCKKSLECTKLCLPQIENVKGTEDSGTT
Run description: yeast display SC50
Metric name: apparent Kd (screen) (nM)
Give the value, in units of nM, as a plain number.

Worked examples, 3 binders total:
E61M (designed binder) SMEEEVEKAAKEYEKKKKEAIEKHLEKLKAKDKEAAERFLKELEEAAKEYAKDEAKTMSEMEAKRRAKKYKEKVLLSELSEEEQKEIKEAEEKLVRTILKYVEEAAK    1.27
K8S (designed binder) SMEEEVESAAKEYEKKKKEAIEKHLEKLKAKDKEAAERFLKELEEAAKEYAKDEAKTMSEEEAKRRAKKYKEKVLLSELSEEEQKEIKEAEEKLVRTILKYVEEAAK    1.4
V102Q (designed binder) SMEEEVEKAAKEYEKKKKEAIEKHLEKLKAKDKEAAERFLKELEEAAKEYAKDEAKTMSEEEAKRRAKKYKEKVLLSELSEEEQKEIKEAEEKLVRTILKYQEEAAK    0.208

Would you kindly look at the next entry?
Challenge: Need apparent Kd (screen) of K93M (designed binder) SMEEEVEKAAKEYEKKKKEAIEKHLEKLKAKDKEAAERFLKELEEAAKEYAKDEAKTMSEEEAKRRAKKYKEKVLLSELSEEEQKEIKEAEEMLVRTILKYVEEAAK , thanks.
Response given: 0.718
